# method: Antioxidant activity assessed as reduction of ferric ion to ferrous ion by FRAP assay
# Type: functional
assay readout: IC50 (µg/mL)
Field format: number, assumed µg/mL, no unit text.

Example entries begin here.
- compound: "O=c1[nH]c2c(c(=O)[nH]1)C(c1ccccc1Cl)Nc1nc3c(cc1-2)-c1[nH]c(=O)[nH]c(=O)c1C(c1ccccc1Cl)N3 (stereo not given)"
  unit label: "µg/mL"
  IC50: 25.51
- compound: "O=c1[nH]c2c(c(=O)[nH]1)C(c1ccc([N+](=O)[O-])cc1)Nc1cc3c(cc1-2)NC(c1ccc([N+](=O)[O-])cc1)c1c-3[nH]c(=O)[nH]c1=O (stereo not given)"
  unit label: "µg/mL"
  IC50: 25.01
- compound: "O=c1[nH]c(=S)[nH]c2c1C(c1ccc(Cl)cc1)Nc1nc3c(cc1-2)-c1[nH]c(=S)[nH]c(=O)c1C(c1ccc(Cl)cc1)N3 (stereo not given)"
  unit label: "µg/mL"
  IC50: 25
- compound: "O=c1[nH]c(=S)[nH]c2c1C(c1ccccc1Cl)Nc1cc3c(cc1-2)NC(c1ccccc1Cl)c1c-3[nH]c(=S)[nH]c1=O (stereo not given)"
  unit label: "µg/mL"
  IC50: 24.46
- compound: "O=c1[nH]c(=S)[nH]c2c1C(c1ccc([N+](=O)[O-])cc1)Nc1nc3c(cc1-2)-c1[nH]c(=S)[nH]c(=O)c1C(c1ccc([N+](=O)[O-])cc1)N3 (stereo not given)"
  unit label: "µg/mL"
  IC50: 26.25

Memo: O=c1[nH]c2c(c(=O)[nH]1)C(c1ccccc1)Nc1nc3c(cc1-2)-c1[nH]c(=O)[nH]c(=O)c1C(c1ccccc1)N3 (stereo not given) , reported IC50: 33.91

Short answer for O=c1[nH]c2c(c(=O)[nH]1)C(c1ccc(Cl)cc1)Nc1cc3c(cc1-2)NC(c1ccc(Cl)cc1)c1c-3[nH]c(=O)[nH]c1=O (stereo not given) : IC50 was 23.21
